- experimental.system: Histone deacetylase 1 (Homo sapiens, UniProt Q13547)
- Sequence (Q13547 whole entry): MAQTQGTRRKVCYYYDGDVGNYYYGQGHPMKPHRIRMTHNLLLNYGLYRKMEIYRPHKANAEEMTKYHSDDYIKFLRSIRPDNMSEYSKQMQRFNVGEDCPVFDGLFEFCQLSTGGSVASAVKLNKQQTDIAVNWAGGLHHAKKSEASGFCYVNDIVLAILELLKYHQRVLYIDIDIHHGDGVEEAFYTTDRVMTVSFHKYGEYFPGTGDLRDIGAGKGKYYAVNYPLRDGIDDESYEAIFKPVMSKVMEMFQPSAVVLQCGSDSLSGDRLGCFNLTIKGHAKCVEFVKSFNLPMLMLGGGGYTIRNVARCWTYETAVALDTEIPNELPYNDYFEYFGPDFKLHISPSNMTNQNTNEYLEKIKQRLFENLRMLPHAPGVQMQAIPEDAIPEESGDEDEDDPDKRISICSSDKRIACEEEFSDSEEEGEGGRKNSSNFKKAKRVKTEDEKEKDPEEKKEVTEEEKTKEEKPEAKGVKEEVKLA
- assay.name: Inhibition of recombinant human full length C-terminal FLAG/His-tagged HDAC1 expressed in Sf9 insect cells using ZMAL (Z-(Ac)Lys-AMC as substrate at 10 uM measured after 90 mins by fluorescence plate reader analysis relative to control
Below is a list of entries, each paired with its recorded inhibition value.
Numbers only; they are read as %.

Example entries and their recorded answers appear below.
{"molecule": "O=C(Cc1ccc(NC(=O)N2CCC(N3C(=O)[C@H](c4ccccc4)[C@H]3c3ccccc3)CC2)cc1)NO (racemic)", "inhibition (%)": 53.3}
{"molecule": "O=C(/C=C/c1ccc(C(=O)N2CCC(N3C(=O)[C@H](c4ccccc4)[C@H]3c3ccccc3)CC2)cc1)NO (racemic)", "inhibition (%)": 93.4}
{"molecule": "O=C(NO)c1ccc(/C=C/C(=O)N2CCC(N3C(=O)[C@H](c4ccccc4)[C@H]3c3ccccc3)CC2)cc1 (racemic)", "inhibition (%)": 90.1}

Request: Which measured inhibition belongs to O=C(CCc1ccc(C(=O)N2CCC(N3C(=O)[C@H](c4ccccc4)[C@H]3c3ccccc3)CC2)cc1)NO (racemic) , tested on Histone deacetylase 1 (Homo sapiens, UniProt Q13547)?
Response: 66.4

Request: Item: O=C(NO)c1ccc(CCC(=O)N2CCC(N3C(=O)[C@H](c4ccccc4)[C@H]3c3ccccc3)CC2)cc1 (racemic)
Response: 48.7

###

- experimental.system: Polyamine deacetylase HDAC10 (Homo sapiens)
- Sequence (Q969S8 whole entry): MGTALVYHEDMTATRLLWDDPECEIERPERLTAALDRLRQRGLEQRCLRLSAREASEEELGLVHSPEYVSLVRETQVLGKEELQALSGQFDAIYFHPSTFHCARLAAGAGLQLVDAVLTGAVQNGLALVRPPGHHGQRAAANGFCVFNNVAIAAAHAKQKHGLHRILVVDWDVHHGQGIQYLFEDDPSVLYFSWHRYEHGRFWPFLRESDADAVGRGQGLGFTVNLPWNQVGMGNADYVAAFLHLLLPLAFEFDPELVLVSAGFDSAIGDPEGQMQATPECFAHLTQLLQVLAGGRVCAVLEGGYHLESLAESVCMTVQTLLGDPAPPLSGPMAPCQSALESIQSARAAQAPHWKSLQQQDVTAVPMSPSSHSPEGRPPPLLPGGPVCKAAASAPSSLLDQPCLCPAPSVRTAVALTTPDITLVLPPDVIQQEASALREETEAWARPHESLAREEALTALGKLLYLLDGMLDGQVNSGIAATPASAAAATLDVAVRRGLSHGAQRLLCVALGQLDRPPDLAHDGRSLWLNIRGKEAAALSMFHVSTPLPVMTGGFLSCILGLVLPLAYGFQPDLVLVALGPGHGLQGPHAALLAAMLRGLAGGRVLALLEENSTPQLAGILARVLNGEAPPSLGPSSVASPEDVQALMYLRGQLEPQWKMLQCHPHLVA
- assay.name: Inhibition of recombinant human N-terminal FLAG tagged HDAC10 expressed in baculovirus infected Sf9 insect cells using fluorogenic substrate measured after 30 mins by fluorescence plate reader analysis
measured.metric: IC50

{"molecule": "O=C(NO)c1ccc(CNC(=O)N2CCC(N3C(=O)[C@H](c4ccccc4)[C@H]3c3ccccc3)CC2)cc1 (racemic)", "IC50": "6.6 µM"}
{"molecule": "O=C(NO)c1ccc(CC(=O)N2CCC(N3CC(c4ccccc4)(c4ccccc4)C3=O)CC2)cc1", "IC50": "5.1 µM"}

Next molecule, please.
Request: Record request: IC50 value, item `O=C(NO)c1ccc(CNC(=O)N2CCC(N3CC(c4ccccc4)(c4ccccc4)C3=O)CC2)cc1`
Response: 6.5 µM
